Experiment: Pharmacokinetic studies in male SD rats (IV bolus and gavage)
Details: rat, in vivo; male SD rats, PO 30 mg/kg, analyte prodrug; read-out: Tmax (median)
property-name: Tmax

// lookup Tmax for `CC(C)C[C@@H](C(=O)Nc1ccn(C[C@@H](O)COC(=O)c2cccnc2)n1)N1CC(Oc2ccccc2Cl)=CC1=O` 15 min
